target: Cytochrome P450 3A4 (Homo sapiens, UniProt P08684); experiment: Inhibition of CYP3A4 in human liver microsomes using testosterone as substrate; format: ADME, Microsome
Sequence (P08684 whole entry): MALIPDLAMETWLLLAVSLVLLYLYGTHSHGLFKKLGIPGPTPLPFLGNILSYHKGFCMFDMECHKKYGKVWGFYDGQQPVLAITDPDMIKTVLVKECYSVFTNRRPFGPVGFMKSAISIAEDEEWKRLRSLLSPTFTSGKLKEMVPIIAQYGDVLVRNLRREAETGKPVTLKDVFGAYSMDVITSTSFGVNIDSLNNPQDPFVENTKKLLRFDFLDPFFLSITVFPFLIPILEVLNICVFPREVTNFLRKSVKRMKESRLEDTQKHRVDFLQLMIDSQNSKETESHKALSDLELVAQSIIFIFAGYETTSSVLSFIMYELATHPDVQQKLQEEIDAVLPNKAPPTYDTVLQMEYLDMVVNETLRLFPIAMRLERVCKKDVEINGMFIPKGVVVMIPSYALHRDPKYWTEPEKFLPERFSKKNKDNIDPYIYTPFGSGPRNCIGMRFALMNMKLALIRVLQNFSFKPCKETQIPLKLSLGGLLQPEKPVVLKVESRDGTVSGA
pIC50: −log10 of the molar value.
value-kind: pIC50

// recorded pIC50 for Cc1ccc(NC(=O)C[C@H](CCC(=O)O)c2noc([C@H]3C[C@@H](CC(C)(C)C)C3)c2C2CC2)c(Cl)c1 : < 5.00

###

assay: Metabolic stability in human liver microsomes assessed as compound remaining at 5 umol/L measured after 60 mins by UPLC/MS analysis; assay type: ADME, Microsome; conditions: dose 5 µmol/L, read-out: Stability
value-kind: remaining at 1 h, 5 µM
A complete answer gives the number followed by the unit.

// recorded remaining at 1 h, 5 µM for Cc1ccc(NC(=O)C[C@H](CCC(=O)O)c2noc([C@H]3C[C@@H](CC(C)C)C3)c2C2CC2)c(C)c1 : 61%

// recorded remaining at 1 h, 5 µM for Cc1ccc(NC(=O)CC(c2nnc([C@H]3C[C@@H](CC(C)C)C3)n2C2CC2)C2CN(C)C2)c(C)c1 (mixture of isomers) : 78%

// recorded remaining at 1 h, 5 µM for CC(=O)N1C[C@H](C(=O)Nc2ccc(C)cc2C)[C@@H](c2nnc([C@H]3C[C@@H](CC(C)C)C3)n2C2CC2)C1 : 61%

All figures here come from ChEMBL document CHEMBL5537159.
